Molecular target: MNK1 (Homo sapiens, UniProt Q9BUB5)
Sequence (Q9BUB5 whole entry): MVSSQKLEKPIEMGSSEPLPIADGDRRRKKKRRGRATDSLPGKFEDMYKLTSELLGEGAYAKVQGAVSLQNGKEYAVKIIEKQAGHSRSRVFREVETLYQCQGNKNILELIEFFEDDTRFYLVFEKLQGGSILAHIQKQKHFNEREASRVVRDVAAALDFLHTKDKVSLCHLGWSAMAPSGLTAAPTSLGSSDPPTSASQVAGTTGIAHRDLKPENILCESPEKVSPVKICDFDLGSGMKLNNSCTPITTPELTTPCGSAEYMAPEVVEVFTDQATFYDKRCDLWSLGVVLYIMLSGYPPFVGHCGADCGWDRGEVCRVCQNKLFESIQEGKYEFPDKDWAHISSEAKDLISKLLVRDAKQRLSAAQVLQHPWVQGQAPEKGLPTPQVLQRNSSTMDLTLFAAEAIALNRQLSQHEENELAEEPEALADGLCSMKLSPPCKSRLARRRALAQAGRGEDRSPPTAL
Assay: MNK inhibition assay (Z-Lyte kinase assay, Ser/Thr 7 peptide)
Conditions: recombinant GST-MNK1, 3 hours at 31° C.
OUTCOME MEASURE: log10(IC50) (log10 of the value in nM)
The base-10 logarithm of IC50, taken with IC50 in nM, is what appears here.

Solved cases (3 shown):
Qu. Give the measured log10(IC50) for "NCCNCc1ccc2cncc(-c3ccc(O)cc3)c2c1"
Ans. 2.97

Qu. Give the measured log10(IC50) for "NC1CCN(Cc2ccc3cncc(-c4ccccc4)c3n2)CC1"
Ans. 2.37

Qu. Give the measured log10(IC50) for "Nc1cc[n+](Cc2ccc3cncc(-c4cc5ccccc5o4)c3c2)cc1O"
Ans. 1.95

Others:
Qu. Give the measured log10(IC50) for "COc1ccc(-c2cncc3ccc(CN4CCC(N)CC4)cc23)cc1OC"
Ans. 3.10

Qu. Give the measured log10(IC50) for "COc1cc(O[C@H]2CC[C@H](N)CC2)cc2c(-c3cc4ccccc4o3)cncc12"
Ans. 2.48

###

Biological target: MNK1 (Homo sapiens, UniProt Q9BUB5)
Assay: MNK inhibition assay (Z-Lyte kinase assay, Ser/Thr 7 peptide)
Conditions: recombinant GST-MNK1, 3 hours at 31° C.
OUTCOME MEASURE: IC50 (nM)
Could you give me the number in nM? Just the number is fine.

Qu. Give the measured IC50 for NC1CCN(Cc2cc(Cl)c3cncc(-c4cccs4)c3c2)CC1 [Example 240]
Ans. 145

Qu. Give the measured IC50 for c1ccc2oc(-c3cncc4ccc(CNc5ccnc6[nH]ccc56)cc34)cc2c1 [Example 272]
Ans. 5.4

Qu. Give the measured IC50 for COc1cnccc1NCc1ccc2cncc(-c3cc4ccccc4o3)c2c1 [Example 72]
Ans. 12

Qu. Give the measured IC50 for NC(=O)Nc1ccc(-c2cncc3ccc(CN4CCC(N)CC4)cc23)cc1 [Example 33]
Ans. 866

Qu. Give the measured IC50 for NCCOc1ccc2cncc(-c3cc4ccccc4o3)c2c1 [Example 102]
Ans. 1050

Qu. Give the measured IC50 for NC1CCN(Cc2ccc3cncc(-c4cccc(NC(=O)Nc5ccccc5)c4)c3c2)CC1 [Example 32]
Ans. 2410

Qu. Give the measured IC50 for N#Cc1ccc(-c2cncc3ccc(CN4CCC(N)CC4)cc23)cc1 [Example 4]
Ans. 334

Qu. Give the measured IC50 for NCCCOCc1ccc2cncc(-c3cc4ccccc4o3)c2c1 [Example 105]
Ans. 89

Others:
Qu. Give the measured IC50 for c1ccc2oc(-c3cncc4ccc(CN5CCCCC5)cc34)cc2c1 [Example 294]
Ans. 1520

Qu. Give the measured IC50 for N[C@@H]1CCC[C@@H](Nc2ccc3cncc(-c4cc5ccccc5o4)c3c2)C1 [Example 291]
Ans. 638

Qu. Give the measured IC50 for c1ccc2oc(C3CNNc4ccc(CNc5ccncc5)cc43)cc2c1 (stereo not shown) [Example 277]
Ans. 131

###

IC50 values, listed per item
Biological target: MNK1 (Homo sapiens)
Assay: MNK inhibition assay (Z-Lyte kinase assay, Ser/Thr 7 peptide)
Conditions: recombinant GST-MNK1, 3 hours at 31° C.
Report field: quantity (unit follows the number).

Solved cases (4 shown):
Qu. Give the measured IC50 for "NC1CCN(Cc2ccc3cncc(-c4ccc5cc[nH]c5c4)c3c2)CC1"
Ans. 247 nM

Qu. Give the measured IC50 for "Nc1cc(NCc2ccc3nncc(-c4cc5ccccc5o4)c3c2)ccn1"
Ans. 43 nM

Qu. Give the measured IC50 for "Cc1ccc(-c2cncc3ccc(CNc4ccnc5ccccc45)cc23)o1"
Ans. 56 nM

Qu. Give the measured IC50 for "Fc1cnccc1NCc1ccc2cncc(-c3cc4ccccc4o3)c2c1"
Ans. 32 nM

With those in mind, consider the next compound.
Qu. Give the measured IC50 for "c1ccc2oc(-c3cncc4ccc(OCc5ccncc5)cc34)cc2c1"
Ans. 268 nM

###

IC50 values, listed per item
Molecular target: MNK1 (Homo sapiens, UniProt Q9BUB5)
Test: MNK inhibition assay (Z-Lyte kinase assay, Ser/Thr 7 peptide)
Conditions: recombinant GST-MNK1, 3 hours at 31° C.
Could you give me the number in nM? Just the number is fine.

Solved cases (6 shown):
Qu. Give the measured IC50 for "Nc1ncc(-c2cccc(F)c2)c2cc(CN3CCC(N)CC3)ccc12"
Ans. 1470

Qu. Give the measured IC50 for "NCCCNCc1ccc2cncc(-c3ccc(O)cc3)c2c1"
Ans. 166

Qu. Give the measured IC50 for "NC1CCN(Cc2ccc3cncc(-c4ccc5cnccc5c4)c3c2)CC1"
Ans. 1050

Qu. Give the measured IC50 for "COc1cc(CN2CCC(N)CC2)cc2c(-c3ccc(Cl)cc3)cnc(N)c12"
Ans. 300

Qu. Give the measured IC50 for "Nc1ncc(-c2ccc(F)c(F)c2)c2cc(CN3CCC(N)CC3)cc(Cl)c12"
Ans. 150

Qu. Give the measured IC50 for "NCc1cccc(NCc2ccc3cncc(-c4cc5ccccc5o4)c3c2)c1"
Ans. 580

Others:
Qu. Give the measured IC50 for "NC1CCN(Cc2cc(Cl)c3cncc(-c4ccccc4)c3c2)CC1"
Ans. 213

Qu. Give the measured IC50 for "Nc1ncc(-c2ccccc2)c2cc(CN3CCC(N)CC3)c(Cl)cc12"
Ans. 194

Qu. Give the measured IC50 for "Nc1ncc(-c2cc3ccccc3o2)c2cc(CN3CCC(N)CC3)ccc12"
Ans. 131

###

IC50 values, listed per item
Biological target: UniProtKB Q9BUB5
Experiment: MNK inhibition assay (Z-Lyte kinase assay, Ser/Thr 7 peptide)
Conditions: recombinant GST-MNK1, 3 hours at 31° C.
Could you give me the number in nM? Just the number is fine.

Solved cases (8 shown):
Qu. Print UniProtKB Q9BUB5 IC50 for N[C@H]1CC[C@@H](C(=O)Nc2ccc3cncc(-c4cc5ccccc5o4)c3c2)CC1 [Example 157] .
Ans. 50

Qu. Print UniProtKB Q9BUB5 IC50 for Fc1cc(NCc2ccc3cncc(-c4cc5ccccc5o4)c3c2)ccn1 [Example 63] .
Ans. 68

Qu. Print UniProtKB Q9BUB5 IC50 for NC1CCN(Cc2ccc3cncc(-c4ccc(NC(=O)NC5CC5)cc4)c3c2)CC1 [Example 118] .
Ans. 422

Qu. Print UniProtKB Q9BUB5 IC50 for c1coc(-c2cncc3ccc(CNc4ccnc5ccccc45)cc23)c1 [Example 208] .
Ans. 56

Qu. Print UniProtKB Q9BUB5 IC50 for Nc1cc[n+](Cc2ccc3cncc(-c4cc5ccccc5o4)c3c2)cc1 [Example 55] .
Ans. 14

Qu. Print UniProtKB Q9BUB5 IC50 for COc1cc(O[C@H]2CC[C@H](N)CC2)cc2c(-c3ccccc3)cnc(N)c12 [Example 321] .
Ans. 175

Qu. Print UniProtKB Q9BUB5 IC50 for NC1CCN(Cc2ccc3cncc(-c4cccc(Cl)c4)c3c2)CC1 [Example 10] .
Ans. 325

Qu. Print UniProtKB Q9BUB5 IC50 for COc1cc(CN2CCC(N)CC2)cc2c(-c3cccs3)cncc12 [Example 245] .
Ans. 24

With those in mind, consider the next molecule.
Qu. Print UniProtKB Q9BUB5 IC50 for Nc1ncc(-c2cc3ccccc3o2)c2cc(NCc3ccncc3)ccc12 [Example 233] .
Ans. 4300

###

Molecular target: MNK1 (Homo sapiens, UniProt Q9BUB5)
Construct: purchased Life Technologies or Carna Biosciences PV6023 or 02-145; host or cells: baculovirus infected insect cells
Experiment: MNK inhibition assay (Z-Lyte kinase assay, Ser/Thr 7 peptide)
Type: biochemical
Settings: recombinant GST-MNK1, 3 hours at 31° C.
pIC50: −log10 of the molar value.
Given measured pIC50, output yes (1) if it is greater than or equal to 7 and no (0) if not.

These recorded examples may help you get a feel for the data.
Qu. API: above_or_equal(metric=pIC50, cutoff=7) for item Nc1cc2cncc(-c3cc4ccccc4o3)c2cc1CN1CCC(N)CC1 [Example 254]
Ans. yes (1)

Qu. API: above_or_equal(metric=pIC50, cutoff=7) for item Nc1ccc2c(ccn2Cc2ccc3cncc(-c4cc5ccccc5o4)c3c2)c1 [Example 192]
Ans. no (0)

Qu. API: above_or_equal(metric=pIC50, cutoff=7) for item NC1CCN(Cc2ccc3nncc(-c4ccccc4)c3c2)CC1 [Example 84]
Ans. no (0)

Qu. API: above_or_equal(metric=pIC50, cutoff=7) for item c1ccc2oc(-c3cncc4ccc(Cn5ccc6ccncc65)cc34)cc2c1 [Example 191]
Ans. no (0)

Qu. API: above_or_equal(metric=pIC50, cutoff=7) for item Cc1cc(NC(=O)Nc2ccc(-c3cncc4ccc(CN5CCC(N)CC5)cc34)cc2)on1 [Example 120]
Ans. no (0)

Others:
Qu. API: above_or_equal(metric=pIC50, cutoff=7) for item Nc1cc[n+](Cc2ccc3cncc(-c4ccc(O)cc4)c3c2)cc1 [Example 122]
Ans. yes (1)

Every entry's value here was drawn from patent US20200031811A1.
